Molecular target: PI3K β (p110β/p85α) (Homo sapiens, UniProt P42338)
Construct: purchased Upstate / Millipore Corporation
Sequence (P42338 whole entry): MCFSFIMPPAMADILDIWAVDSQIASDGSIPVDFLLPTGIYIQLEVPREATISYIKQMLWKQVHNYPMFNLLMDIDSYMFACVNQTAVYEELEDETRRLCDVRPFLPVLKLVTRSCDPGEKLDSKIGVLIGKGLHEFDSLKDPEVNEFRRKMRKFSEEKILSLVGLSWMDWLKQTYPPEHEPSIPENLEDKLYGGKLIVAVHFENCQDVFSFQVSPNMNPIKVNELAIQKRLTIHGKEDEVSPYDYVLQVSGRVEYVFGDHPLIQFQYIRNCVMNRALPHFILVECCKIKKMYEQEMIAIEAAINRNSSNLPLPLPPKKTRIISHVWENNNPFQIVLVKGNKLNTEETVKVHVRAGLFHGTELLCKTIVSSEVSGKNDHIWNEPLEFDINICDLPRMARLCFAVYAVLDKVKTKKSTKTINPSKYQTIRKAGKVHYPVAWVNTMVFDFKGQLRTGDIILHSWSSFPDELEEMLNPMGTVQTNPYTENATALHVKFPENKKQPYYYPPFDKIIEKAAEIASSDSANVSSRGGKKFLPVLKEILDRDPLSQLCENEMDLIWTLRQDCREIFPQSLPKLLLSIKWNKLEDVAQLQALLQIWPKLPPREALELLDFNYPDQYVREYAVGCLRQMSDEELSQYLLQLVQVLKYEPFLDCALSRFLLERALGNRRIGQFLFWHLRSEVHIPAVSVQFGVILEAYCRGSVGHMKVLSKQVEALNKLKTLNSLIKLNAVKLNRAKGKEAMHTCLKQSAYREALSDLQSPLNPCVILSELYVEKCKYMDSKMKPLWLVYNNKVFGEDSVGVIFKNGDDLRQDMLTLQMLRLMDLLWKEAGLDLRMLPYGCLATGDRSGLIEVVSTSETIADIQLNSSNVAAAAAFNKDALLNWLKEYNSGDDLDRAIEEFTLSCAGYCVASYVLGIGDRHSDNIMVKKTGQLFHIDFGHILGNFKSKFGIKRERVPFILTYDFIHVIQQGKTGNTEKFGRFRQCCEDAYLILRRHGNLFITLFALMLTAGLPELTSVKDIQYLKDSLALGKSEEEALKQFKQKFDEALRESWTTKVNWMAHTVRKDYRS
Sequence (P27986 whole entry partner): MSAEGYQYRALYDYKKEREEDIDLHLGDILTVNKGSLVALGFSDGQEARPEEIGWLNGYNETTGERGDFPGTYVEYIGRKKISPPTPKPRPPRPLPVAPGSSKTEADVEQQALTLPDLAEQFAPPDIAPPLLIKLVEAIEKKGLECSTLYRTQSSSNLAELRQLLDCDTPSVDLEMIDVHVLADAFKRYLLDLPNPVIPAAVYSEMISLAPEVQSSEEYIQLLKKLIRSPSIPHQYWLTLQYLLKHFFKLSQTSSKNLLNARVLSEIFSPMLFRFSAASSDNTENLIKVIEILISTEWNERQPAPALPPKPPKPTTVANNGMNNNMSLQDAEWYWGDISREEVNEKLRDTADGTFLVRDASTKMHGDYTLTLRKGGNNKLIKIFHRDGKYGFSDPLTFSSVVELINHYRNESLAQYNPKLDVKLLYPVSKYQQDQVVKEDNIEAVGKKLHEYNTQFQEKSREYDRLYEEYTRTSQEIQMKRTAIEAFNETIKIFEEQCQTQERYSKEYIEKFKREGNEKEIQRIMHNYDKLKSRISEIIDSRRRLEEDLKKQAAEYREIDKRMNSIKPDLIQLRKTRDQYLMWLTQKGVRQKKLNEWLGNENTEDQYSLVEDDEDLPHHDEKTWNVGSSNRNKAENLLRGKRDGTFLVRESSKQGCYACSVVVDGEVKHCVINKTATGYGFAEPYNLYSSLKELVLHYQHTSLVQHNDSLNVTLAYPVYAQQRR
Assay: PI 3-Kinase (human) HTRF assay, PI3K β
Format: biochemical
Conditions: read-out: PI3K β IC50
// values below are reported IC50

[
  {
    "Molecule": "Nc1nc2cc(-c3ccc4ncc(-c5ccc(N6CCOCC6)nc5)n4c3)ccc2o1 [Compound 51]",
    "IC50": "< 1 µM"
  },
  {
    "Molecule": "COc1ncc(-c2ccc3ncc(C(=O)N4CCOCC4)n3c2)cc1NS(=O)(=O)c1ccc(F)cc1F [Compound 417]",
    "IC50": "< 0.1 µM"
  },
  {
    "Molecule": "CN1CCC(Nc2nc3cc(-c4ccc5ncc(C(=O)N6CCOCC6)n5c4)ccc3o2)CC1 [Compound 408]",
    "IC50": "> 10 µM"
  },
  {
    "Molecule": "CC(C)N1CCC(n2cnc3ccc(-c4cncc(NS(C)(=O)=O)c4)cc3c2=O)CC1 [Compound 520]",
    "IC50": "> 10 µM"
  }
]
